molecular target: Dsg3-Fc recombinant fusion protein (Homo sapiens, UniProt P32926); assay: SPR
Sequence (P32926 50-615): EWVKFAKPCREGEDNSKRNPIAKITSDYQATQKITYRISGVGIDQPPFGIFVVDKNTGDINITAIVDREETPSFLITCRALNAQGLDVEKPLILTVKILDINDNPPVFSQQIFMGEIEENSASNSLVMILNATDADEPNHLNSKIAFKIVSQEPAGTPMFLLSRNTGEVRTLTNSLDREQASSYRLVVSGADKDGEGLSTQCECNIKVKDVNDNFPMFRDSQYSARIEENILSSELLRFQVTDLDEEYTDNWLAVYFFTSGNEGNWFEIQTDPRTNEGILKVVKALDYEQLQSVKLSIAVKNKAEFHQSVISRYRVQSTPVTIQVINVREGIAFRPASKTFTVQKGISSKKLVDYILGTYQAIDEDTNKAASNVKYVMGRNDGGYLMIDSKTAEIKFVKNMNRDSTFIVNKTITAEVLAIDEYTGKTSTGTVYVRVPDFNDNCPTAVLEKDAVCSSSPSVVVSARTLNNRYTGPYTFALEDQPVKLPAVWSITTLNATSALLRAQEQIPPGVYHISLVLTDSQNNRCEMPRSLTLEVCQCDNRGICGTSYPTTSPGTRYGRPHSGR
value.kind: pKd
Answers are plain numbers, as −log10 of the molar value.

Inquiry: Recorded pKd for F779 scFv, somatically mutated (scFv, V domains shown) VH: QVQLVQSGADVKKPGASVKVSCTASGNTFTTYSLHWVRQAPGQGLEWMGVIDPSGGSTSYAQKFQGRLTMTRDTSTSTFYMELSSLRSEDTAVYYCARSIESISGRTLGYWGQGTLVTVSS VL: DIVMTQTPLSSPVTLGQPASISCRSSETLVHSDGNTYLSWLQQRPGQPPRLLIYKISNRFSGVPDRFSGSGAGTDFTLKISRVEAEDVGVYYCLQATEFPYTFGQGTKLEIK , please?
Reply text: 8.75
